Target: IKZF1 (dCK*-IKZF1 fusion in HEK293FT)
Assay: inhibition of IKZF1 HTRF signal (DMSO = 0%, pomalidomide 10 uM = 100%); higher = lower IKZF1 protein level
Details: compound concentration: 5 uM, overnight (~20 h)
property.measured: inhibition of IKZF1 HTRF signal (%)

compound="CC1=C(C(=O)OC(C)C)C(c2cccc([N+](=O)[O-])c2)C(C(=O)OC2CN(C(c3ccccc3)c3ccccc3)C2)=C(N)N1 (stereo not given)" output_unit=% assay_result=10.4
compound=CC[C@H](CO)Nc1nc(Nc2cccc(-c3ccccn3)c2)c2ncn(C(C)C)c2n1 output_unit=% assay_result=-29.5
compound=O=c1oc2c(O)c(O)cc3c(=O)oc4c(O)c(O)cc1c4c23 output_unit=% assay_result=5.6
compound="CCCCC1C(=O)N(c2ccccc2)N(c2ccc(O)cc2)C1=O (stereo not given)" output_unit=% assay_result=-36.3
compound=COc1ccccc1NC(=O)OCC1CCN(C(=O)OC(C)(C)C)CC1 output_unit=% assay_result=-21.9
